subject_of_test: T1, Native human IL-18 (human, UniProt Q14116 37-193)
T1 sequence: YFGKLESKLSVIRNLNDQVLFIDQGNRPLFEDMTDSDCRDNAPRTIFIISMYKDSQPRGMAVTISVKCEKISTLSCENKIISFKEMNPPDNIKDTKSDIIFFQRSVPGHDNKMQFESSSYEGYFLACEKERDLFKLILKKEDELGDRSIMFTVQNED
procedure_summary: cell-based or functional assay
Measured IC50, inhibition of IFN-γ release, human whole blood, LPS/IL-12 (native IL-18) of individual entries
property_measured: IC50, inhibition of IFN-γ release, human whole blood, LPS/IL-12 (native IL-18)

binder	result
MOR9464_N30I (antibody, human IgG1, lambda, L234A L235A, V domains shown) VH: EVQLVQSGAEVKKPGSSVKVSCKASGGTFISYAISWVRQAPGQGLEWMGNIIPMTGQTYYAQKFQGRVTITADESTSTAYMELSSLRSEDTAVYYCARAAYHPLVFDNWGQGTLVTVSS VL: DIVLTQPPSVSGAPGQRVTISCSGSSSNIGNHYVNWYQQLPGTAPKLLIYRNNHRPSGVPDRFSGSKSGTSASLAITGLQSEDEADYYCQSWDYSGFSTVFGGGTKLTVLG	13.2 nM
MOR10497 (antibody, human IgG1, lambda, L234A L235A, V domains shown, also called MOR010497) VH: EVQLQESGPGLVKPGETLSLTCTVSGGSISTGSYYWNWIRQAPGKGLEWIGEIQSPGYTFYNPSLKSRVTISVDTSKNQFSLKLSSVTAADTAVYYCARTTRYWMSHILAYGMDYWGQGTLVTVSS VL: DIVLTQPPSVSGAPGQRVTISCSGSSSNIGNHYVSWYQQLPGTAPKLLIYANTKRPSGVPDRFSGSKSGTSASLAITGLQSEDEADYYCSSYDGSQSIVFGGGTKLTVLG	108 nM
